- EXPERIMENTAL_PROTOCOL: pI of native glucagon and glucagon derivatives
- Assay type: physicochemical
Bridge positions count the residues as written; N and C are the ends. Square brackets hold non-standard residues; d marks the D form. Ends that are not written are not given here. Aib = CC(C)(N)C(=O)O
List of pl values.
Answer using only a numeral; do not append any unit.

YXQGTFTSDYSKYLDEKRAKEFVQWLMNTC (Y[Aib]QGTFTSDYSKYLDEKRAKEFVQWLMNTC; lactam 16-20) [SEQ ID NO: 12] | 6.20
HSQGTFTSDYSKYLDSCEAQDFVQWLMNT (glucagon derivative) [SEQ ID NO: 5] | 4.22
YXQGTFTSDYSKYLDCKRAKEFVQWLMNT (Y[Aib]QGTFTSDYSKYLDCKRAKEFVQWLMNT; lactam 17-21) [SEQ ID NO: 31] | 8.12

Problem: Can you share its pl? I mean this sequence: YXQGTFTSDYSKYLDERRAKEFVQWLMNTC (Y[Aib]QGTFTSDYSKYLDERRAKEFVQWLMNTC; lactam 16-20) [SEQ ID NO: 37]
Result: 6.21

Provenance of the data: patent US20240197834A1
